Target: Cyclic guanosine monophosphate inhibiting-type cyclic adenosine monophosphate phosphodiesterase (cAMP-PDE) (Canis lupus familiaris, UniProt A0A8I3NYE0)
Sequence (A0A8I3NYE0 1-1135): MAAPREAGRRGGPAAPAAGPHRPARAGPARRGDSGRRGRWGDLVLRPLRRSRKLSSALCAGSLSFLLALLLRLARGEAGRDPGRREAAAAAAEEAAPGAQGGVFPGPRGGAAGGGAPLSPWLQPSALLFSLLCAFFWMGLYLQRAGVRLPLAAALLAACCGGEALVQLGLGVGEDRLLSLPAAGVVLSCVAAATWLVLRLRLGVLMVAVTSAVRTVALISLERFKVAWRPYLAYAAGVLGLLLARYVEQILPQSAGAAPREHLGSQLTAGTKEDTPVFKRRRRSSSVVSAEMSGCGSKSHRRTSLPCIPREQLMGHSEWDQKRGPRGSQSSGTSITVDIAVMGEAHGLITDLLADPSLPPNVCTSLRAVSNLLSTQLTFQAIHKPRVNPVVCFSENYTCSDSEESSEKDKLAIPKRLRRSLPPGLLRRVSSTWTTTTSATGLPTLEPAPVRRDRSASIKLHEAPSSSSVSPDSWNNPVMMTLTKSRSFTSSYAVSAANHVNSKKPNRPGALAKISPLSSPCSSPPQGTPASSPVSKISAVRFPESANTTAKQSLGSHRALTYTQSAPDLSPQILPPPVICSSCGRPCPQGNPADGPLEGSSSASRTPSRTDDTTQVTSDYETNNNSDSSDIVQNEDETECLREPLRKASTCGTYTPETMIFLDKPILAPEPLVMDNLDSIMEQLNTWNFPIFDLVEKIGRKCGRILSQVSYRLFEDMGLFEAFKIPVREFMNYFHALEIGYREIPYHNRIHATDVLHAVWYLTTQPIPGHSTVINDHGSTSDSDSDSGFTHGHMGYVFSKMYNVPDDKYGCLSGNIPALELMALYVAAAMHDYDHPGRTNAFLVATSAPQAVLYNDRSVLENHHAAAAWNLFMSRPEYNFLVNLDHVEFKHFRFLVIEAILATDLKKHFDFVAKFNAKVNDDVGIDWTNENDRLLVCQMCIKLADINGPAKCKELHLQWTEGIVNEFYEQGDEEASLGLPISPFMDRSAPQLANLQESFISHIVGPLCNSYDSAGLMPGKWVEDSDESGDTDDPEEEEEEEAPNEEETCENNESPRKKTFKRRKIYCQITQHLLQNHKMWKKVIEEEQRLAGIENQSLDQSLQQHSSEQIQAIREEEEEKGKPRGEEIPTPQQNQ
Overview of reported IC50 across a group of compounds:
VALUE TYPE: IC50 (nM)

>>> measured_number("CCCC1=C(Nc2ccc(C3=NNC(=O)CC3)cc2)CCCC1=O")
430
>>> measured_number("CCCC1=C(Nc2ccc(C3=NNC(=O)CC3)cc2)CCC1=O")
370
>>> measured_number("CCCC1=C(Nc2ccc(C3=NNC(=O)CC3C)cc2)CCCC1=O (stereo not shown)")
88
>>> measured_number("O=C1CCc2cc(OCCCCc3nnnn3C3CCCCC3)ccc2N1 [Cilostazol, reference compound]")
600
